All figures here come from PubChem BioAssay (NCI).

- System: OVCAR-4 ovarian
- test_method_notes: NCI tumour cell line growth inhibition, 48 h
# key: entry, value: TGI

[[record]]
molecule = "Cn1ccnc1C[N-]Cc1nccn1C.O=[N+]([O-])[O-].O=[N+]([O-])[O-].[Cu+2]"
system_name = "OVCAR-4 ovarian"
test_result = "> 100 µM"


Okay, now this molecule:
So what's the measured TGI for this one? Cc1ccc(S(=O)OC23CC4CC(CC(C4)C2)C3)cc1 (configuration not stated) > 100 µM

---

# key: entry, value: GI50
- System: EKVX NSCLC
- test_method_notes: NCI tumour cell line growth inhibition, 48 h

Recorded results for 2 molecules are shown here.
[[record]]
molecule = "CO[C@H](C(=O)O)[C@@H]1Cc2cc3cc(OC4CC(OC5CC(O)C(O)C(C)O5)C(O)C(C)O4)c(C)c(O)c3c(O)c2C(=O)[C@H]1OC1CC(OC2CC(OC3CC(C)(O)C(O)C(C)O3)C(O)C(C)O2)C(O)C(C)O1 (stereo partly drawn)"
system_name = "EKVX NSCLC"
test_result = "0.57 µM"

[[record]]
molecule = "Cn1ccnc1C[N-]Cc1nccn1C.O=[N+]([O-])[O-].O=[N+]([O-])[O-].[Cu+2]"
system_name = "EKVX NSCLC"
test_result = "> 100 µM"


Okay, now this molecule:
Give recorded GI50 with EKVX NSCLC for the following molecule: COc1ccc(/C=N/N=C(\[O-])c2ccncc2)cc1F.COc1ccc(/C=N\N=C(/[O-])c2ccncc2)cc1F.[Cu+2] 24.3 µM

---

- Tested on: EKVX NSCLC
- test_method_notes: NCI tumour cell line growth inhibition, 48 h
experimental_readout: TGI

Recorded results for 2 compounds are shown here.
[[record]]
compound = "COc1ccc2c(c1)-c1[nH]c3ccccc3c1CC2"
system_name = "EKVX NSCLC"
test_result = "21.9 µM"

[[record]]
compound = "CN(C)CC1CCCC/C1=N/OC(=O)c1ccc(Cl)c(Cl)c1 (centres undefined)"
system_name = "EKVX NSCLC"
test_result = "> 100 µM"


So what's the measured TGI for this one? CC[C@H](C)C1=C(OC(C)=O)[N@+]2([O-])Oc3ccc(-c4c(OC(C)=O)c(OC(C)=O)c(-c5ccc(OC(C)=O)cc5)c(OC(C)=O)c4OC(C)=O)cc3O[C@]2([C@@H](C)CC)C(=O)N1OC(C)=O 22.5 µM

So what's the measured TGI for this one? C[N+](C)(N)c1nc(N)c(C#N)c(C#N)c1C#N > 10 µM

So what's the measured TGI for this one? COc1ccc(NC(=O)/C=C(C)/C=C/C=C(C)\C=C\C2=C(C)CCCC2(C)C)cc1 > 100 µM

So what's the measured TGI for this one? COc1ccc(C2C(Cl)C(=O)N2NC(=O)Cc2ccccc2)cc1OC (centres undefined) > 100 µM

So what's the measured TGI for this one? COC(=O)C1CC(C(=O)OC)c2nc3cc(C)c(C)cc3nc21 (centres undefined) > 100 µM

So what's the measured TGI for this one? OC(COc1cccc2ccccc12)CN1CCN(c2ccccc2Cl)CC1 (centres undefined) 31.7 µM

So what's the measured TGI for this one? OCC(O)C(OC1OC(CO)C(O)C(O)C1O)c1nn(-c2ccccc2)c2nc3cc(Cl)ccc3nc12 (centres undefined) > 100 µM
